study_system: T1, human NPY2R (human, UniProt P49146 1-381)
T1 sequence (looked up): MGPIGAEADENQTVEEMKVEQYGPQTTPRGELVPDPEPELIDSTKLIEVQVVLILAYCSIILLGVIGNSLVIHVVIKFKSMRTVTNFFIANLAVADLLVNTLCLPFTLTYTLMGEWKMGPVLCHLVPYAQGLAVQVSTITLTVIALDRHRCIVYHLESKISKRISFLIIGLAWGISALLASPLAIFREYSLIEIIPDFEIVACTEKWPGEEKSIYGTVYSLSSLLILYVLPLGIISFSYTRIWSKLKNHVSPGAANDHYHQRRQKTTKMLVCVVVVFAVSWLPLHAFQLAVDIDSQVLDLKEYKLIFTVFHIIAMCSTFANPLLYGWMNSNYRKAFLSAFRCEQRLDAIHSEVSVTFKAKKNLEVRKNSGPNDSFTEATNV
protocol_text: cell-based or functional assay
Square brackets hold non-standard residues; d marks the D form. Side chains are listed from the residue outwards. Ends that are not written are not given here. NMeY = CN[C@@H](Cc1ccc(O)cc1)C(=O)O; αMeF = C[C@](N)(Cc1ccccc1)C(=O)O; Iva = CC[C@](C)(N)C(=O)O; Oda = not defined here; Aib = CC(C)(N)C(=O)O
experimental_endpoint: Agonist activity (EC50), Cre-luc reporter assay

binder	measured_value
H-Y[Aib]EGT[αMeF]TSDK([Gly-Gly-Gly-Gly-Pal])[Aib]I[Aib]LDKQRQ[Iva]EFVRHLLNK[Aib]TRQRY-NH2	100 pM
H-Y[Aib]EGT[αMeF]TSDK([Gly-Gly-Gly-Gly-Pal])[Aib]K[Aib]LDKQRQ[Iva]EFVRHLLNK[Aib]TRQRY-NH2	64 pM
[NMeY][Aib]EGT[αMeF]TSDK([Gly-Gly-Gly-Gly-Oda])AI[Aib]LEKQRQ[Iva]EFVRHLLNK[Aib]TRQRY-NH2 (reading uncertain; also: printed as Me-Tyr-Aib-Glu-Gly-Thr-αMePhe-Thr-Ser-Asp-Lys(-Gly-Gly-Gly-Gly-Oda)-Ala-Ile-Aib-Leu-Glu-Lys-Gln-Arg-Gln-Iva-Glu-Phe-Val-Arg-His-Leu-Leu-Asn-Lys-Aib-Thr-Arg-Gln-Arg-Tyr-NH2)	1700 pM
Me-Y[Aib]EGT[αMeF]TSDK([Gly-Gly-Gly-Gly-Pal])[Aib]I[Aib]LDKQRQ[Iva]EFVRHLLNK[Aib]TRQRY-NH2	100 pM
H-Y[Aib]EGT[αMeF]TSDK([Gly-Gly-Gly-Gly-Oda])[Aib]I[Aib]LDKQRQ[Iva]EFVRHLLNK[Aib]TRQRY-NH2 (reading uncertain; also: printed as H-Tyr-Aib-Glu-Gly-Thr-αMePhe-Thr-Ser-Asp-Lys(-Gly-Gly-Gly-Gly-Oda)-Aib-Ile-Aib-Leu-Asp-Lys-Gln-Arg-Gln-Iva-Glu-Phe-Val-Arg-His-Leu-Leu-Asn-Lys-Aib-Thr-Arg-Gln-Arg-Tyr-NH2)	2100 pM
Me-Y[Aib]EGT[αMeF]TSDK([Gly-Gly-Gly-Gly-Oda])[Aib]I[Aib]LDKQAQ[Iva]EFVRHLLNK[Aib]TRQRY-NH2 (reading uncertain; also: printed as Me-Tyr-Aib-Glu-Gly-Thr-αMePhe-Thr-Ser-Asp-Lys(-Gly-Gly-Gly-Gly-Oda)-Aib-Ile-Aib-Leu-Asp-Lys-Gln-Ala-Gln-Iva-Glu-Phe-Val-Arg-His-Leu-Leu-Asn-Lys-Aib-Thr-Arg-Gln-Arg-Tyr-NH2)	3300 pM
H-Y[Aib]EGT[αMeF]TSDK([Gly-Gly-Gly-Gly-Pal])AI[Aib]LEKQRQ[Iva]EFVRHLLNK[Aib]TRQRY-NH2	23 pM
Me-Y[Aib]EGT[αMeF]TSDK([Gly-Gly-Gly-Gly-Oda])SI[Aib]LDKQRQ[Iva]EFVRHLLNK[Aib]TRQRY-NH2 (reading uncertain; also: printed as Me-Tyr-Aib-Glu-Gly-Thr-αMePhe-Thr-Ser-Asp-Lys(-Gly-Gly-Gly-Gly-Oda)-Ser-Ile-Aib-Leu-Asp-Lys-Gln-Arg-Gln-Iva-Glu-Phe-Val-Arg-His-Leu-Leu-Asn-Lys-Aib-Thr-Arg-Gln-Arg-Tyr-NH2)	2400 pM
Me-Y[Aib]EGT[αMeF]TSDK([Gly-Gly-Gly-Gly-Oda])[Aib]I[Aib]LDKQRQ[Iva]EFVRHLLNK[Aib]TRQRY-NH2 (reading uncertain; also: printed as Me-Tyr-Aib-Glu-Gly-Thr-αMePhe-Thr-Ser-Asp-Lys(-Gly-Gly-Gly-Gly-Oda)-Aib-Ile-Aib-Leu-Asp-Lys-Gln-Arg-Gln-Iva-Glu-Phe-Val-Arg-His-Leu-Leu-Asn-Lys-Aib-Thr-Arg-Gln-Arg-Tyr-NH2)	2000 pM
Me-Y[Aib]EGT[αMeF]TSDK([Gly-Gly-Gly-Gly-Pal])SK[Aib]LDKQRQ[Iva]EFVRHLLNK[Aib]TRQRY-NH2	20 pM
H-Y[Aib]EGT[αMeF]TSDK([Gly-Gly-Gly-Gly-Pal])AI[Aib]LDKQRQ[Iva]EFVRHLLNK[Aib]TRQRY-NH2	99 pM
